measured.target: glucagon receptor (GCGR) overexpressed CHO-K1 cells or human primary hepatocytes (Homo sapiens)
Construct: expressed in transfected cells; host or cells: GCGR overexpressed CHO-K1 cells or human primary hepatocytes (endogenous receptor)
Sequence (P47871 26-477): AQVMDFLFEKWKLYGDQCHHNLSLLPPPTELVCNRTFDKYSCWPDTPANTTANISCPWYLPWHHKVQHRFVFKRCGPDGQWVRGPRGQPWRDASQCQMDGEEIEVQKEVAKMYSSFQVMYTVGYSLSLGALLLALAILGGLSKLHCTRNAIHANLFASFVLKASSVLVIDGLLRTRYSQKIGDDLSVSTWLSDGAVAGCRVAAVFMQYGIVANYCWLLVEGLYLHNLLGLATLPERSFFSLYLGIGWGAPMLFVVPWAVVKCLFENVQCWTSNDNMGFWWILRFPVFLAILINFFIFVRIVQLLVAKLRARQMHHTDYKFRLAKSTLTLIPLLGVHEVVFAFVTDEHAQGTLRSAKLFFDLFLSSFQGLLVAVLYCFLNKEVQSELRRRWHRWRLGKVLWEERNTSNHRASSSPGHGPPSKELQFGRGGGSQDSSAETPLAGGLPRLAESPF
experiment.summary: Glucagon cAMP inhibition assay (Cisbio cAMP Dynamic 2 HTRF)
Type: cell-based
run.conditions: inhibition of glucagon (EC50 concentration) induced cAMP production
measurement.label: IC50 cAMP (µM)

> print(dat)
                                 cpd.smiles  measurement.label  readout.qualifier  numeric.readout
1  CC(C)C[C@@H](COc1cnn(-c2ccc(F)cc2F)c1)Nc1ccc(C(=O)NCCC(=O)O)cc1          IC50 cAMP                  =            5.577
2  CC(C)C[C@@H](COc1cc(F)c(-c2ccc(C(F)(F)F)cc2F)c(F)c1)Nc1ccc(C(=O)NCCC(=O)O)cc1          IC50 cAMP                  =            0.689
3  CC[C@H](C)[C@@H](COc1ccc(-c2ccc(OC(F)(F)F)cc2)cc1)Nc1ccc(C(=O)NCCC(=O)O)cc1          IC50 cAMP                  =            1.078
4  CC(C)[C@@H](COc1ccc(-c2nc3ccccc3s2)c(F)c1)Nc1ccc(C(=O)NCCC(=O)O)cn1          IC50 cAMP                  =            2.408
5  CCCC[C@@H](COc1ccc(-c2ccc(C(F)(F)F)cc2F)c(F)c1)Nc1ccc(C(=O)NCCC(=O)O)cc1          IC50 cAMP                  =           0.2276
6  CC[C@H](C)[C@@H](COc1ccc(-c2ccc(Cl)cc2Cl)cc1)Nc1ccc(C(=O)NC[C@@H](O)C(=O)O)cc1          IC50 cAMP                  =            3.553
7  CC(C)[C@@H](COc1ccc(-c2ccc(C(F)(F)F)cc2Cl)c(Cl)c1)Nc1ccc(C(=O)NC[C@@H](O)C(=O)O)cc1          IC50 cAMP                  >               10

Origin of values: patent US11384060B2
